Source listed as ChEMBL document CHEMBL5532650.

- protocol_summary: Volume of distribution at steady state in C57BL/6 mouse at 1 mg/kg, iv measured upto 24 hrs by LC-MS/MS analysis
- Assay type: ADME, organism-based
- recorded_conditions: in vivo, read-out: Vdss
measured_quantity: Vd
Write your answer as a measured quantity: the number, then the unit.

Can you share its Vd? I mean this compound: CNC(=O)/C=C/CNC(=O)c1ccc([N+](=O)[O-])s1 1.6 L/kg

###

Readings of t1/2 for the listed compounds
- protocol_summary: Metabolic stability in mouse liver S9 fraction assessed as half life at 0.1 uM measured for every 15 mins by HPLC-MS/MS analysis
- Type: ADME, subcellular
- recorded_conditions: s9, 0.25 h
Please reply with the bare figure in min and do not write the unit itself.

Consider the following illustrative entries.
cpd_smiles: O=C(NC/C=C/S(=O)(=O)c1ccccc1)c1ccc([N+](=O)[O-])o1
units_text: min
meas_value: 12.99

cpd_smiles: CNC(=O)/C=C/[C@H](CCc1ccccc1)NC(=O)c1ccc([N+](=O)[O-])s1
units_text: min
meas_value: 19.49

Continue with the next compound.
Item under review: CNC(=O)/C=C/[C@H](CCc1ccccc1)NC(=O)c1ccc([N+](=O)[O-])o1 . Reported t1/2? 20.49

###

- protocol_summary: Apparent volume of distribution in C57BL/6 mouse at 1 mg/kg, iv measured upto 24 hrs by LC-MS/MS analysis
- Assay type: ADME, organism-based
- recorded_conditions: in vivo, read-out: Vz
measured_quantity: Vd (L/kg)
Output spec: scalar in L/kg, unitless text.

Which measured Vd value corresponds to CNC(=O)/C=C/CNC(=O)c1ccc([N+](=O)[O-])s1 ? 1.7

###

- protocol_summary: Mean residence time in C57BL/6 mouse at 1 mg/kg, iv measured upto 24 hrs by LC-MS/MS analysis
- Format: ADME, organism-based
- recorded_conditions: in vivo
measured_quantity: MRT (min)
A number alone suffices; assume min.

Record request: MRT value, item CNC(=O)/C=C/CNC(=O)c1ccc([N+](=O)[O-])s1 30

###

- protocol_summary: Selectivity index, ratio of CC50 for cytotoxicity against human HepG2 cells to EC50 for Antitrypanosomal activity against bloodstream forms of Trypanosoma brucei gambiense 130R
- Type: toxicity, cell-based
// reported selectivity ratio for each item listed

# annotated cases, reported selectivity ratio shown
cpd_smiles: CNC(=O)CCCNC(=O)c1ccc([N+](=O)[O-])s1
measured_quantity: selectivity ratio
meas_value: 37
--
cpd_smiles: CNC(=O)/C=C/[C@H](CCc1ccccc1)NC(=O)c1ccc([N+](=O)[O-])s1
measured_quantity: selectivity ratio
meas_value: 2000
--
cpd_smiles: CS(=O)(=O)/C=C/CNC(=O)c1ccc([N+](=O)[O-])s1
measured_quantity: selectivity ratio
meas_value: 395

# context switch: different compound, same selectivity ratio
Which selectivity ratio value belongs to CNC(=O)/C=C/[C@H](CCc1ccccc1)NC(=O)c1ccc([N+](=O)[O-])o1 ? 694

###

- protocol_summary: Selectivity index, ratio of CC50 for cytotoxicity against human HepG2 cells to EC50 for Antitrypanosomal activity against bloodstream forms of Trypanosoma brucei brucei strain 427
- Assay type: toxicity, cell-based
- recorded_conditions: read-out: Selectivity Index
# true (1) = selectivity ratio below 60 (exclusive); false (0) = selectivity ratio at/above 60

Illustrative cases are given below, each with its answer.
cpd_smiles: O=C(NCCCS(=O)(=O)c1ccccc1)c1ccc([N+](=O)[O-])o1
group: true (1)
--
cpd_smiles: CS(=O)(=O)/C=C/CNC(=O)c1ccc([N+](=O)[O-])o1
group: true (1)
--
cpd_smiles: CNC(=O)/C=C/[C@H](CCc1ccccc1)NC(=O)c1ccc([N+](=O)[O-])o1
group: false (0)
--
cpd_smiles: O=C(NC/C=C/S(=O)(=O)c1ccccc1)c1ccco1
group: true (1)

Could you now consider this next compound?
Quick check: does CS(=O)(=O)CCCNC(=O)c1ccc([N+](=O)[O-])s1 have selectivity ratio under 60? false (0)
